Examples of molecules with documented solubility follow.
# protocol_notes: Assessment of solubility: HT solubility in pION buffer, UV spectrophotometry
# condition_parameters: pION system solution buffer, pH 7.4, pH 7.4, aqueous buffer, kinetic from dmso stock, Solubility (pH 7.4), pH 7.4 buffer, 16-19 h incubation, 1.0% DMSO

> print(dat)
                                   molecule  data.value
1  Cc1cc(C(=O)N2CCCCC2)ccc1COc1ccc(C#N)cc1-c1csc(N2CC3C(C2)C3C(=O)O)n1 (stereo not shown)  > 54 µg/mL
2  Cc1ccc(OCc2ccc(CN3CCOCC3)cc2C)c(-c2csc(N3CCC(CC(=O)O)C3)n2)c1 (stereo not shown)  > 56 µg/mL
3  Cc1ccc(OCc2ccc(C(=O)N3CCOCC3)cc2C#N)c(-c2csc(N3CCC(C(=O)O)CC3)n2)c1  > 54 µg/mL

--- query ---
What measured solubility goes with Cc1cc(C(=O)N2CCCCC2)ccc1COc1ccc(Cl)cc1-c1csc(N2CCC(C(=O)O)C(C(F)(F)F)C2)n1 (stereo not shown) ?
> 62 µg/mL

These entries and their values trace back to patent US8815857B2.
